Values compiled from PubChem BioAssay (NCI).

# System: HOP-92 NSCLC
# METHOD_NOTES: NCI tumour cell line growth inhibition, 48 h; in the data active = GI50 below about 0.43 µM; inactive = the rest
Classes used: active, inactive

MOLECULE | LABEL_VALUE
c1ccc(-c2oc(-c3ccccc3)c(CN3CCCCC3)c2CN2CCCCC2)cc1 | inactive
CSc1ccc(C2=C(c3ccccc3)C(=O)OC2)cc1 | inactive
CCN(CC)c1ccc(/C=C/C(=O)c2ccc(Nc3nc(Nc4ccccc4)nc(Nc4ccccc4)n3)cc2)cc1 | active
COC(=O)NC1C(C)OC(OC2C/C=C(/C)C3C=CC4C(OC5CC(OC6CCC(OC7CC(O)C(OC8CCC(O)C(C)O8)C(C)O7)C(C)O6)C(OC(C)=O)C(C)O5)C(C)CC(C)C4C3(C)/C(O)=C3/C(=O)OC4(CC(C=O)=CC(O)C4/C=C\2C)C3=O)CC1(C)[N+](=O)[O-] (centres undefined) | inactive
CC(=O)Nc1ccc(C(=O)CCl)cc1 | inactive
COc1cnc2c(c1)C(=O)c1c-2n(CCCNC2=NCCS2)c(=O)c2cc(F)ccc12 | inactive
CCOC(=O)[C@@H](C)C[C@H](Cc1ccccc1)NC(=O)c1csc([C@@H](C[C@H](C(C)C)N(C)C(=O)[C@@H](NC(=O)[C@H]2CCCCN2C)C(C)(C)CC)OC(C)=O)n1 | active
COc1cc2c(c(OC)c1OC)-c1ccc(NN(C(=O)c3ccccc3)C(=O)c3ccccc3)c(=O)cc1[C@@H](NC(C)=O)CC2 (tested in a mixture with another compound) | inactive
COc1cccc(/C=C/C(=O)c2ccc3cc(OC)ccc3c2)c1 | inactive
COc1ccc(-c2cc(-c3ccc(Nc4nc(Nc5ccccc5)nc(Nc5ccc(Cl)cc5)n4)cc3)nc(N)n2)cc1 | inactive
CO[C@H]1C[C@@H]2CC[C@@H](C)[C@@](O)(O2)C(=O)C(=O)N2CCCC[C@H]2C(=O)O[C@H]([C@H](C)C[C@@H]2CC[C@@H](OC(=O)C(C)(CO)CO)[C@H](OC)C2)CC(=O)[C@H](C)/C=C(\C)[C@@H](O)[C@@H](OC)C(=O)[C@H](C)C[C@H](C)\C=C/C=C/C=C/1C | active
O=C(Nc1ccc(Oc2ccc(F)cc2)cc1)[C@@H]1C[C@@H](Cc2ccc(F)cc2)CN1C(=O)Cn1ccnn1 | inactive
c1cc(N[C@@H]2CCNC2)nc(-c2cnc3ccc(-c4cn[nH]c4)cn23)c1 | inactive
COc1cc(/C=C2\C(=O)N(Cc3ccc(Cl)cc3)c3ccccc32)cc(OC)c1OC | inactive

* * *

# System: SR leukemia
# METHOD_NOTES: NCI tumour cell line growth inhibition, 48 h
Each record here notes measured TGI.
REPORTED_METRIC: TGI (µM)

MOLECULE | REPORTED_METRIC | UNITS_TEXT | REL | RECORDED_RESULT
CCN1CCN(c2nc(C)cc(N(CCCNc3ccnc4cc(Cl)ccc34)Cc3ccc4c(c3)OCO4)n2)CC1 | TGI | µM | = | 1.58
COc1ccccc1NC(=O)C1=C(C)NC(C)=C(C(=O)Nc2ccccc2OC)C1c1ccccc1[N+](=O)[O-] | TGI | µM | = | 39.6
CCOC(=O)[C@@H](C)C[C@H](Cc1ccccc1)NC(=O)c1csc([C@@H](C[C@H](C(C)C)N(C)C(=O)[C@@H](NC(=O)[C@H]2CCCCN2C)C(C)(C)CC)OC(C)=O)n1 | TGI | µM | = | 3.39
O=C1[C@@H]2C(c3ccc(Br)cc3)=NO[C@@H]2C(=O)N1c1ccc(Cc2ccc(N3C(=O)[C@H]4C(c5ccc(Br)cc5)=NO[C@H]4C3=O)cc2)cc1 | TGI | µM | > | 40
COc1cnc2c(c1)C(=O)c1c-2n(CCCNC2=NCCS2)c(=O)c2cc(F)ccc12 | TGI | µM | = | 2.04
CC1(C)CCC(Sc2ccccc2)O1 (stereo not drawn) | TGI | µM | > | 100
NS(=O)(=O)c1ccc(NC(=O)N/N=C/c2ccccc2O)cc1 | TGI | µM | > | 100
C[N+](C)(CCCCCC[N+](C)(C)CCCN1C(=O)c2cccc3cccc(c23)C1=O)CCCN1C(=O)c2cccc3cccc(c23)C1=O | TGI | µM | > | 100

* * *

# Test system: NCI-H460 lung
# METHOD_NOTES: NCI tumour cell line growth inhibition, 48 h
Each record here notes measured TGI.

COMPOUND | TGI
O=[N+]([O-])c1ccc(SN=S=NSc2cccc(SN=S=NSc3ccc([N+](=O)[O-])cc3)c2)cc1 | > 100 µM
CCOC(=O)N/N=C(/N)c1cccc(Br)c1 | > 100 µM
CSc1ccc(C2=C(c3ccccc3)C(=O)OC2)cc1 | > 34.8 µM
CC(=O)Nc1ccc(C(=O)CCl)cc1 | 26 µM
C/C(=N\O)c1ccc2ccc3ccccc3c2c1 | > 100 µM
CC(C)(C)c1cc(CCC(=O)Nc2ccc(Cl)cc2)[nH]c(=S)n1 | > 100 µM
O=C1c2ccccc2C(=O)c2cc3c(cc21)CS(=O)C3 | > 100 µM
NC(=O)c1ccc2c(c1)-c1nc-2nc2[n-]c(nc3nc(nc4[n-]c(n1)c1ccc(C(N)=O)cc41)-c1ccc(C(N)=O)cc1-3)c1ccc(C(N)=O)cc21.[Co+2] | > 50 µM
Cc1c(C)c2c(c(N)c1C#N)C(=O)N(O)C2=O | > 100 µM
CN=C(N)c1ccc(N=C(N)c2ccc(-c3ccc(C(N)=Nc4ccc(C(N)=NC)cc4)cc3)cc2)cc1 | > 100 µM
C=C1C(=O)O[C@H]2[C@H]1CC/C(COC(=O)c1cc(OC)c(OC)c(OC)c1)=C\CC[C@@]1(C)O[C@@H]21 | 6.52 µM
CC1(C)OP(=O)(c2ccccc2)C=C1Sc1ccc([N+](=O)[O-])cc1[N+](=O)[O-] (stereo unspecified) | > 100 µM
N#CC(NNC(=O)Cc1ccccc1)c1cccc(O)c1 (stereo unspecified) | > 100 µM
CCCNC(=O)Nc1c([N+](=O)[O-])cc(C(F)(F)F)cc1[N+](=O)[O-] | > 100 µM
CC1=CC2C(C=C1)S(=O)(=O)N1CC21c1ccccc1 (stereo unspecified) | > 100 µM
COc1ccc2nc3cc(Cl)ccc3c(NCCCNCCO)c2c1 | 1.2 µM
Clc1ccc(Nc2nnc(CNc3ccc(-c4nnc(Nc5ccc(Cl)cc5)s4)cc3)s2)cc1 | > 100 µM
COc1cc[c]([Sn]([c]2ccc(OC)cc2)([c]2ccc(OC)cc2)[c]2ccc(OC)cc2)cc1 | > 100 µM
NC(N)=N/N=C/c1c(-c2ccsc2)nc2n1CCS2 | > 100 µM
Nc1nncc2c1c(Br)cn2C1OC(CO)C(O)C1O (stereo unspecified) | > 100 µM
COc1ccc(C(O)/C(=N/N)c2nc3ccc(Cl)cc3[nH]c2=O)cc1 (stereo unspecified) | > 100 µM

* * *

# System: OVCAR-8 ovarian
# METHOD_NOTES: NCI tumour cell line growth inhibition, 48 h

COMPOUND | REL | TGI, µM
CCOC(=O)Cc1cc(OC)c(OC)cc1/C(Cl)=C(\CO)c1ccc(OC)c(OC)c1 | > | 100
COc1ccc(C2c3cc4c(cc3OC(NNc3ccccc3)C2C)OCO4)cc1 (stereo not given) | = | 63.5
CCCn1c2c(c3ccccc3c1=O)C(=O)c1ccccc1-2 | > | 100
COc1cc(/C=C2\C(=O)N(Cc3ccc(Cl)cc3)c3ccccc32)cc(OC)c1OC | > | 45.2
c1ccc(-c2oc(-c3ccccc3)c(CN3CCCCC3)c2CN2CCCCC2)cc1 | = | 17.1
Nc1nnc2c(-c3ccccc3)[nH]nc2n1 | > | 100
COc1ccc(C(O)c2cc3c(N)c(C(=O)Nc4ccc(Cl)cc4)sc3nc2C)cc1 (stereo not given) | = | 26.7
CCCNC(=O)Nc1c([N+](=O)[O-])cc(C(F)(F)F)cc1[N+](=O)[O-] | > | 100
COc1cnc2c(c1)C(=O)c1c-2n(CCCNC2=NCCS2)c(=O)c2cc(F)ccc12 | = | 4.72
CC(C)(C)c1cc(CCC(=O)Nc2ccc(Cl)cc2)[nH]c(=S)n1 | > | 100

* * *

# System: 786-0 renal
# METHOD_NOTES: NCI tumour cell line growth inhibition, 48 h
REPORTED_METRIC: TGI

COMPOUND | MEASURED_ON | REPORTED_METRIC | RECORDED_RESULT
CC1(C)OP(=O)(c2ccccc2)C=C1Sc1ccc([N+](=O)[O-])cc1[N+](=O)[O-] (stereo not drawn) | 786-0 renal | TGI | > 100 µM
Nc1nncc2c1c(Br)cn2C1OC(CO)C(O)C1O (stereo not drawn) | 786-0 renal | TGI | > 100 µM
Cc1cc(=O)oc2ccc(OC/C=C3\CCC(=O)O3)cc12 | 786-0 renal | TGI | 14.2 µM
